From: PubChem BioAssay AID1645866

- System: Ubiquitin carboxyl-terminal hydrolase 28 (Homo sapiens) (UniProt Q96RU2)
- Sequence (Q96RU2 whole entry, looked up): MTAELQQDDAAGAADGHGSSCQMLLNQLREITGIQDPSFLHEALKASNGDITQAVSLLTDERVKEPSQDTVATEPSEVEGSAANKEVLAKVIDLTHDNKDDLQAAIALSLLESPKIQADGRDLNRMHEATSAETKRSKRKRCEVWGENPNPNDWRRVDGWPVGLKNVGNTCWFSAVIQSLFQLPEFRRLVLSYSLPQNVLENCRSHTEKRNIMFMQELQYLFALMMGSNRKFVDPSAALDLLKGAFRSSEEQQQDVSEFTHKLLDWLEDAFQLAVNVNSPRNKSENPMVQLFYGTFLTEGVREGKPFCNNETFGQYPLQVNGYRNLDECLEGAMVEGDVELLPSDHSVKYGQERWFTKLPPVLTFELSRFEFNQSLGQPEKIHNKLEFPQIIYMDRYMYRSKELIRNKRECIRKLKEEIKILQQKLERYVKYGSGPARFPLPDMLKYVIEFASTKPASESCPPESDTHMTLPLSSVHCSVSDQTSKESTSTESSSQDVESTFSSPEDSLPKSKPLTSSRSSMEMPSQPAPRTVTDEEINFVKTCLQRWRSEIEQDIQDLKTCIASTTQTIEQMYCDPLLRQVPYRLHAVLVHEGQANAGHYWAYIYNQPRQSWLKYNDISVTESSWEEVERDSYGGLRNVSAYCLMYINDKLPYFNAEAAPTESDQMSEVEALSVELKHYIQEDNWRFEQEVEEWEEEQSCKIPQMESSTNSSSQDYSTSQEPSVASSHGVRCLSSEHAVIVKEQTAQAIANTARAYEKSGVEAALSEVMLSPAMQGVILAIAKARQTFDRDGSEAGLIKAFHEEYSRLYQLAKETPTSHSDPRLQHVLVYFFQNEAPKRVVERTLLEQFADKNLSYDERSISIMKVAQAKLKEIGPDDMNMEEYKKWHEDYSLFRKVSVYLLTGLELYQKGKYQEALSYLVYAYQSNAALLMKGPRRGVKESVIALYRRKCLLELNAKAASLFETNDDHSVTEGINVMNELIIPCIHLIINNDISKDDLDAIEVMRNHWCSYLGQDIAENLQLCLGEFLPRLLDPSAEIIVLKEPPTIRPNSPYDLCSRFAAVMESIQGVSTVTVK
- Protocol: Concentration-response biochemical assay confirming initial hits as inhibitors of ubiquitin-specific protease 28 (AID 1645866)
- Condition Context: purified USP28, ubiquitin-rhodamine fluorescence, 30 min
Activity calls are given as the source filed them.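 How the source made its calls: active means in confirmatory dose-response testing, peak deubiquitinase inhibition of 30% or more; inactive means the rest.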
Measure: IC50

Just so you know, measured IC50 for `O=C(CCCn1c(=O)[nH]c2cc(Cl)ccc2c1=O)N1CCc2ccccc2C1` came out at 19.4 µM

Just so you know, measured IC50 for `c1ccc(-c2nc(-c3nnn(-c4ccccc4)c3-c3ccncc3)no2)cc1` came out at 12.5 µM

Just so you know, measured IC50 for `CS(=O)(=O)N1CCCc2cc(C(=O)Nc3ccc4c(c3)OCO4)ccc21` came out at 4.54 µM

Just so you know, measured IC50 for `O=C1C=C(O)c2c(O)cccc2C1=O` came out at 15.7 µM

Just so you know, measured IC50 for `O=C(Cn1cnc2c(cnn2-c2ccc(Cl)cc2)c1=O)NCc1ccccc1Cl` came out at 9.05 µM

Just so you know, measured IC50 for `O=C(Nc1ccc(Br)cn1)c1nc2ccccc2nc1N1CCCCC1` came out at > 50 µM (inactive)

Just so you know, measured IC50 for `Cc1ccc2cc3c(nc2n1)CCN(Cc1ccc(F)cc1)C3` came out at > 50 µM (inactive)

Just so you know, measured IC50 for `COc1ccc(Cl)cc1NC(=O)c1cc(-c2ccccn2)n[nH]1` came out at 0.547 µM

Just so you know, measured IC50 for `Cc1nc2sc(C(=O)Nc3ccccc3Br)c(N)c2c(C)c1C` came out at 2.01 µM

Just so you know, measured IC50 for CC(OC(=O)c1c2c(nc3ccccc13)CCCCC2)C(=O)Nc1ccc2ccccc2c1 (configuration not stated) came out at 5.1 µM

Just so you know, measured IC50 for `COc1ccc(C(=O)Nc2nc(-c3ccc4c(c3)NC(=O)CO4)c(C)s2)cc1OC` came out at 1.72 µM

Just so you know, measured IC50 for `COCCCNC(=O)c1ccc(Cn2c(=O)c3ccccc3n(CC(=O)NC3CCCCC3)c2=O)cc1` came out at 23.5 µM

Just so you know, measured IC50 for `Cc1oc2ccc(NS(=O)(=O)c3ccc(F)cc3)cc2c1C(=O)OCc1ccccc1` came out at 9.05 µM

Just so you know, measured IC50 for `CC(C)c1nc2sc3c(NCc4ccco4)ncnc3c2c2c1CCC2` came out at 3.08 µM

Just so you know, measured IC50 for `O=c1ncn(Cc2ccc3c(c2)OCO3)cc1-c1ncc(C(F)(F)F)cc1Cl` came out at > 50 µM (inactive)

Just so you know, measured IC50 for `CCn1c(SCc2cccc(C)c2)nnc1-c1cnccn1` came out at 22 µM

Just so you know, measured IC50 for `CCc1cc(=O)n(CC(=O)Nc2cc(C)ccc2OC)c(N2CCOCC2)n1` came out at 26.2 µM

Just so you know, measured IC50 for `N#Cc1ccc(Cl)cc1NC(=O)COc1cccnc1[N+](=O)[O-]` came out at 49.8 µM

Just so you know, measured IC50 for `CCOC(=O)c1sc2nc(CC(=O)OC)nc(NCc3ccco3)c2c1C` came out at > 50 µM (inactive)

Just so you know, measured IC50 for `CC1(C)Cc2nc3sc4c(=O)n(CC(=O)NCc5ccccc5)cnc4c3cc2CO1` came out at 32.9 µM

Just so you know, measured IC50 for `O=[N+]([O-])c1ccc(N2CCN(c3ncnc4c3[nH]c3ccc(F)cc34)CC2)cc1` came out at 0.225 µM

Just so you know, measured IC50 for `O=C(CCc1ccc(S(=O)(=O)N2CCOCC2)cc1)Nc1ccc2c(c1)OCCO2` came out at 13.1 µM
